- target or system: human H1R (Homo sapiens, UniProt P35367)
- Construct: expressed in transfected cells
- Sequence (P35367 whole entry): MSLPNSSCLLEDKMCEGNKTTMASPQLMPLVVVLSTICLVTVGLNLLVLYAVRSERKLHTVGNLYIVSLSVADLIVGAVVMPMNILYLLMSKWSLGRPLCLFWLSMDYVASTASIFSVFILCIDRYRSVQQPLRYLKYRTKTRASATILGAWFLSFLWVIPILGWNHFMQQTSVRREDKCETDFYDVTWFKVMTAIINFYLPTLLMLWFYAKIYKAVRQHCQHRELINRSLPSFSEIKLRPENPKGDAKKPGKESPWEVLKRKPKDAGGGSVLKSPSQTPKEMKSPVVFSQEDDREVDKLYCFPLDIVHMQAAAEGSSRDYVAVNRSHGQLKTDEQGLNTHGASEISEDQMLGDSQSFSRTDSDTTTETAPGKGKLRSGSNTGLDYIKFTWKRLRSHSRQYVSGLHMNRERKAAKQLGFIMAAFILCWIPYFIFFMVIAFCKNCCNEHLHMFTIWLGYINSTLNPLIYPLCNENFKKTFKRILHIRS
- assay details: [3H]mepyramine competition radioligand binding, HEK293T cell homogenates
- applied conditions: read-out: Radioligand binding pKi (converted)
Just a reminder that ties go to 0: only Ki strictly below 6 nM counts as 1.

* C[C@H](NC(=O)CCN1CCC(Oc2ccccc2Cc2ccccc2)CC1)C(=O)N[C@@H](C)C(=O)N[C@@H](C)C(=O)NCCNC(=O)CCCCCNC(=O)COc1ccc(/C=C/C2=[N+]3C(=Cc4ccc(-c5cccs5)n4[B-]3(F)F)C=C2)cc1 [Compound 23] | 1
* COc1ccc(CN(CCN(C)CCC(=O)N[C@@H](C)C(=O)N[C@@H](C)C(=O)NCCNC(=O)CCCCCNC(=O)COc2ccc(/C=C/C3=[N+]4C(=Cc5ccc(-c6cccs6)n5[B-]4(F)F)C=C3)cc2)c2ccccn2)cc1 [Compound 10] | 0
* NC(=O)C[C@H](NC(=O)CNC(=O)CNC(=O)CCN1CCC(Oc2ccccc2Cc2ccccc2)CC1)C(=O)NCCNC(=O)CCCCCNC(=O)COc1ccc(/C=C/C2=[N+]3C(=Cc4ccc(-c5cccs5)n4[B-]3(F)F)C=C2)cc1 [Compound 24] | 1
* COc1ccc(CN(CCN(C)CCC(=O)NCCCC(=O)N[C@@H](C)C(=O)N[C@@H](C)C(=O)NCCNC(=O)CCCCCNC(=O)COc2ccc(/C=C/C3=[N+]4C(=Cc5ccc(-c6cccs6)n5[B-]4(F)F)C=C3)cc2)c2ccccn2)cc1 [Compound 12] | 0
* COc1ccc(CN(CCN(C)CCC(=O)N[C@@H](C)C(=O)N[C@@H](C)C(=O)N[C@@H](CO)C(=O)NCCNC(=O)CCCCCNC(=O)COc2ccc(/C=C/C3=[N+]4C(=Cc5ccc(-c6cccs6)n5[B-]4(F)F)C=C3)cc2)c2ccccn2)cc1 [Compound 11] | 0
* CC(O)[C@H](NC(=O)[C@H](C)NC(=O)[C@H](CC(N)=O)NC(=O)CCN1CCC(Oc2ccccc2Cc2ccccc2)CC1)C(=O)NCCNC(=O)CCCCCNC(=O)COc1ccc(/C=C/C2=[N+]3C(=Cc4ccc(-c5cccs5)n4[B-]3(F)F)C=C2)cc1 (stereo partly drawn) [Compound 25] | 0

These entries and their values trace back to paper PMC5785503.
